# Test system: K12877-001-R-J1-PDC complex spheroid viability
# procedure_details: Anticancer human tumor K12877-001-R-J1-PDC patient-derived lung adenocarcinoma cell line growth inhibition [RAS]
# experimental_conditions: second compound 0.000949 µM; first compound 0.316 µM; stronger effect = lower value
So I've got a bunch of compounds here, and I need their viability, T/C values.
Give the number; % is assumed, so skip it.

// field: viability, T/C; key: CC1(O)CCCC1n1c(=O)c(C(F)F)cc2cnc(NC3CCN(S(C)(=O)=O)CC3)nc21 (configuration not stated) + CCn1c(-c2cc(N3CCN(C)CC3)cnc2C(C)OC)c2c3cc(ccc31)-c1csc(n1)CC(NC(=O)C1CC1C)C(=O)N1CCCC(N1)C(=O)OCC(C)(C)C2 ; value = 80.6

// field: viability, T/C; key: CC1(O)CCCC1n1c(=O)c(C(F)F)cc2cnc(NC3CCN(S(C)(=O)=O)CC3)nc21 (configuration not stated) + CCn1c(-c2cccnc2C(C)OC)c2c3cc(ccc31)N1CCOC(CC(NC(=O)C(C(C)C)N(C)C(=O)C3(F)CCN(C(=O)C#CC(C)(C)N(C)C)CC3)C(=O)N3CCCC(N3)C(=O)OCC(C)(C)C2)C1 ; value = 31.9

* * *

So I've got a bunch of compounds here, and I need their viability, T/C values.
# Tested on: K12877-001-R-J1-PDC complex spheroid viability
# procedure_details: Anticancer human tumor K12877-001-R-J1-PDC cell line growth inhibition [RAS];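 also: tumour cells co-cultured with HUVEC and mesenchymal stem cells in spheroids; spheroids exposed to agents for one week before readout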
# experimental_conditions: second compound 0.1 µM; first compound 0.03 µM; stronger effect = lower value
# Source text: RAS pathway inhibitors in Combinations in Complex Spheroids A high-throughput screen of multi-cell type tumor spheroids was designed to identify active combinations of RAS pathway inhibitors and targeted small molecules. Complex spheroids include a stromal component modeled by human endothelial cells (HUVEC) and fibroblasts modeled by human mesenchymal stem cells (MSCs). […] Compounds. […] If the clinical Cmax for an agent had not been determined, the highest concentration tested was 10 microM. […]
Give the number; % is assumed, so skip it.

// field: viability, T/C; key: CCc1c2c(nc3ccc(O)cc13)-c1cc3c(c(=O)n1C2)COC(=O)[C@]3(O)CC + C#Cc1c(F)ccc2cc(O)cc(-c3ncc4c(N5CC6CCC(C5)N6)nc(OCC56CCCN5CC(F)C6)nc4c3F)c12 ; value = 4.96

// field: viability, T/C; key: CCc1c2c(nc3ccc(O)cc13)-c1cc3c(c(=O)n1C2)COC(=O)[C@]3(O)CC + C=CC(=O)N1CCN(c2nc(OCC3CCCN3C)nc3c(F)c(-c4nc(N)cc(C)c4C(F)(F)F)c(Cl)cc23)C(C)C1 ; value = 2.92

// field: viability, T/C; key: CC1(C)CCC(Nc2ncc(C(F)(F)F)c(-c3c[nH]c4c(P(C)(C)=O)c(C#N)ccc34)n2)CN1 (centres undefined) + C#Cc1c(F)ccc2cc(O)cc(-c3ncc4c(N5CC6CCC(C5)N6)nc(OCC56CCCN5CC(F)C6)nc4c3F)c12 ; value = 52.3

// field: viability, T/C; key: CC1(C)CCC(Nc2ncc(C(F)(F)F)c(-c3c[nH]c4c(P(C)(C)=O)c(C#N)ccc34)n2)CN1 (centres undefined) + C=CC(=O)N1CCN(c2nc(OCC3CCCN3C)nc3c(F)c(-c4nc(N)cc(C)c4C(F)(F)F)c(Cl)cc23)C(C)C1 ; value = 52.6
